The measured values listed here are drawn from patent US8449898B2.

# Tested on: Phytophthora infestans (the causal agent of tomato late blight)
# PROCEDURE_DETAILS: whole plant or invertebrate
# Assay type: in vivo
# CONDITION_NOTES: Phytophthora infestans, read-out: TLB Obsd, component (b) alone, 0.4 ppm
Form field: pest or weed control at 0.4 ppm (one value per entry).

MOLECULE | pest or weed control at 0.4 ppm, %
Cc1ccc(-c2c(Cl)nc(C#N)n2S(=O)(=O)N(C)C)cc1 | 58
Fc1ccc(Oc2ccnc3cc(Cl)cc(Cl)c23)cc1 | 0
CC(C)CC(C)c1sccc1NC(=O)c1cn(C)nc1C(F)(F)F (stereo not shown) | 0
CSC1=N[C@@](C)(c2ccccc2)C(=O)N1Nc1ccccc1 | 30

* * *

# Test system: Phytophthora infestans (the causal agent of tomato late blight)
# PROCEDURE_DETAILS: whole plant or invertebrate
# Type: in vivo
# CONDITION_NOTES: Phytophthora infestans, read-out: TLB Obsd, component (b) alone, 0.04 ppm
Form field: pest or weed control at 0.04 ppm (one value per entry).
EXPERIMENTAL_READOUT: pest or weed control at 0.04 ppm (%)

COMPOUND | TGT | EXPERIMENTAL_READOUT | RESULT_UNITS | VAL
CO/N=C(/C(=O)OC)c1ccccc1COc1ccccc1C | Phytophthora infestans (the causal agent of tomato late blight) | pest or weed control at 0.04 ppm | % | 8
CON=C(C(=O)OC)c1ccccc1CON=C(C)c1cccc(C(F)(F)F)c1 | Phytophthora infestans (the causal agent of tomato late blight) | pest or weed control at 0.04 ppm | % | 0
O=C(Nc1ccccc1-c1ccc(Cl)cc1)c1cccnc1Cl | Phytophthora infestans (the causal agent of tomato late blight) | pest or weed control at 0.04 ppm | % | 25
C[C@@]1(c2ccc(Oc3ccccc3)cc2)OC(=O)N(Nc2ccccc2)C1=O (racemic) | Phytophthora infestans (the causal agent of tomato late blight) | pest or weed control at 0.04 ppm | % | 100

* * *

# System: Pseudoperonospora cubensis (the causal agent of cucumber downy mildew)
# PROCEDURE_DETAILS: Test B: cucumber downy mildew, preventive spray on cucumber seedlings
# Assay type: in vivo
# CONDITION_NOTES: component (b) alone 2 ppm (Compound 1 0 ppm)
The label depends only on CDM Obsd: Fulfilled if it is at least 50%, Not fulfilled if it is smaller.

COMPOUND | QUALITATIVE_LABEL
CCNc1nc(CC)c(C(=O)NC(C#N)c2cccs2)s1 (stereo not shown) | Fulfilled
[Cu+2].[OH-].[OH-] [copper hydroxide] | Not fulfilled
O=C(NCc1ncc(C(F)(F)F)cc1Cl)c1c(Cl)cccc1Cl [fluopicolide] | Fulfilled
CC1CCN(c2c(-c3c(F)cc(F)cc3F)c(Cl)nc3ncnn23)CC1 | Not fulfilled
COC(=O)CC(NC(=O)[C@@H](NC(=O)OC(C)C)C(C)C)c1ccc(Cl)cc1 (stereo partly shown) | Not fulfilled
Cc1ccc(C(C)NC(=O)[C@@H](NC(=O)OC(C)C)C(C)C)cc1 (stereo partly shown) | Not fulfilled
CO/C=C(/C(=O)OC)c1ccccc1Oc1cc(Oc2ccccc2C#N)ncn1 | Fulfilled

* * *

# Test system: Pseudoperonospora cubensis (the causal agent of cucumber downy mildew)
# PROCEDURE_DETAILS: Test B: cucumber downy mildew, preventive spray on cucumber seedlings
# Format: in vivo
# CONDITION_NOTES: component (b) alone, 40 ppm
EXPERIMENTAL_READOUT: CDM Obsd (observed effect, cucumber downy mildew)

COMPOUND | TGT | VAL
CO/C=C(/C(=O)OC)c1ccccc1Oc1cc(Oc2ccccc2C#N)ncn1 | Pseudoperonospora cubensis (the causal agent of cucumber downy mildew) | 100
C#CCOc1ccc(CCNC(=O)C(OCC#C)c2ccc(Cl)cc2)cc1OC (stereo not drawn) | Pseudoperonospora cubensis (the causal agent of cucumber downy mildew) | 100
CCO[PH](=O)O | Pseudoperonospora cubensis (the causal agent of cucumber downy mildew) | 0
Cc1ccc(C(C)NC(=O)[C@@H](NC(=O)OC(C)C)C(C)C)cc1 (stereo partly drawn) | Pseudoperonospora cubensis (the causal agent of cucumber downy mildew) | 100
[Cu+2].[OH-].[OH-] [copper hydroxide] | Pseudoperonospora cubensis (the causal agent of cucumber downy mildew) | 0
CC(C)[C@H](NC(=O)O)C(=O)N[C@H](C)c1nc2ccc(F)cc2s1 | Pseudoperonospora cubensis (the causal agent of cucumber downy mildew) | 100

* * *

# Test system: Phytophthora infestans (the causal agent of tomato late blight)
# PROCEDURE_DETAILS: whole plant or invertebrate
# Format: in vivo
# CONDITION_NOTES: Phytophthora infestans, read-out: TLB Obsd (disease control rating), Table C; component (b) alone 200 ppm
Form field: pest or weed control at 200 ppm (one value per entry).
EXPERIMENTAL_READOUT: pest or weed control at 200 ppm (%)

COMPOUND | TGT | RESULT_UNITS | VAL
O=C1c2ccccc2C(=O)N1SC(Cl)(Cl)Cl [folpet] | Phytophthora infestans (the causal agent of tomato late blight) | % | 75
C[C@@]1(c2ccc(Oc3ccccc3)cc2)OC(=O)N(Nc2ccccc2)C1=O (racemic) [famoxadone] | Phytophthora infestans (the causal agent of tomato late blight) | % | 66
CO/N=C(/C(=O)OC)c1ccccc1COc1ccccc1C [kresoxim-methyl] | Phytophthora infestans (the causal agent of tomato late blight) | % | 99
O=[N+]([O-])c1cc(C(F)(F)F)c(Cl)c([N+](=O)[O-])c1Nc1ncc(C(F)(F)F)cc1Cl [fluazinam] | Phytophthora infestans (the causal agent of tomato late blight) | % | 100
CON=C(C(=O)OC)c1ccccc1CON=C(C)c1cccc(C(F)(F)F)c1 [trifloxystrobin] | Phytophthora infestans (the causal agent of tomato late blight) | % | 53

* * *

# Tested on: Pseudoperonospora cubensis (the causal agent of cucumber downy mildew)
# PROCEDURE_DETAILS: Test B: cucumber downy mildew, preventive spray on cucumber seedlings
# Type: in vivo
# CONDITION_NOTES: Pseudoperonospora cubensis, component (b) alone, 40 ppm; read-out: CDM Obsd (observed effect, cucumber downy mildew)
Form field: pest or weed control at 40 ppm (one value per entry).
EXPERIMENTAL_READOUT: pest or weed control at 40 ppm (%)

ITEM_SMILES | EXPERIMENTAL_READOUT | RESULT_UNITS | VAL
COC(=O)N(OC)c1ccccc1COc1ccn(-c2ccc(Cl)cc2)n1 | pest or weed control at 40 ppm | % | 100
CCNC(=O)NC(=O)/C(C#N)=N/OC | pest or weed control at 40 ppm | % | 0
N#Cc1c(Cl)c(Cl)c(Cl)c(C#N)c1Cl | pest or weed control at 40 ppm | % | 71
O=[N+]([O-])c1cc(C(F)(F)F)c(Cl)c([N+](=O)[O-])c1Nc1ncc(C(F)(F)F)cc1Cl | pest or weed control at 40 ppm | % | 100
CCCOC(=O)NCCCN(C)C | pest or weed control at 40 ppm | % | 31
O=C1c2ccccc2C(=O)N1SC(Cl)(Cl)Cl | pest or weed control at 40 ppm | % | 74
COc1ccc(C(=CC(=O)N2CCOCC2)c2ccc(Cl)cc2)cc1OC | pest or weed control at 40 ppm | % | 100

* * *

# System: Pseudoperonospora cubensis (the causal agent of cucumber downy mildew)
# PROCEDURE_DETAILS: Test B: cucumber downy mildew, preventive spray on cucumber seedlings
# Format: in vivo
# CONDITION_NOTES: Pseudoperonospora cubensis, component (b) alone, 0.4 ppm; read-out: CDM Obsd
Form field: pest or weed control at 0.4 ppm (one value per entry).
EXPERIMENTAL_READOUT: pest or weed control at 0.4 ppm (%)

MOLECULE | VAL
CC(C)CC(C)c1sccc1NC(=O)c1cn(C)nc1C(F)(F)F (stereo not shown) [penthiopyrad] | 0
Cc1ccc(-c2c(Cl)nc(C#N)n2S(=O)(=O)N(C)C)cc1 [cyazofamid] | 100
CSC1=N[C@@](C)(c2ccccc2)C(=O)N1Nc1ccccc1 [fenamidone] | 0
Fc1ccc(Oc2ccnc3cc(Cl)cc(Cl)c23)cc1 [quinoxyfen] | 0
